system: 282377-053-R-J1-PDC complex spheroids, viability; experiment: Anticancer human tumor 282377-053-R-J1-PDC patient-derived colon adenocarcinoma cell line growth inhibition [GQUAD]; settings: second compound 10 µM; first compound 0.00999 µM; active compounds read low
endpoint: viability, T/C (%)
Give a bare numeral; the unit % is implied.

Task: Recorded viability, T/C of Cn1ncnc1[C@H]1c2n[nH]c(=O)c3cc(F)cc(c23)N[C@@H]1c1ccc(F)cc1 + Cc1[nH]c2ccc(F)cc2c1-c1nc2c3cccnc3c3ncccc3c2[nH]1 , please.
Result: 57.2

Task: Recorded viability, T/C of Cc1[nH]c2ccccc2c1CCNCc1ccc(/C=C/C(=O)NO)cc1 + CN(C)c1ccc(Nc2c3ccc(NC(=O)CCN4CCCC4)cc3nc3cc(NC(=O)CCN4CCCC4)ccc23)cc1 , please.
Result: 94.6

Task: Recorded viability, T/C of CCc1c2c(nc3ccc(O)cc13)-c1cc3c(c(=O)n1C2)COC(=O)[C@]3(O)CC + CN(C)c1ccc(Nc2c3ccc(NC(=O)CCN4CCCC4)cc3nc3cc(NC(=O)CCN4CCCC4)ccc23)cc1 , please.
Result: 99.5

* * *

test system: 282377-053-R-J1-PDC complex spheroids, viability; experiment: Anticancer human tumor 282377-053-R-J1-PDC cell line growth inhibition [GQUAD]; settings: second compound 10 µM; first compound 0.0316 µM; active compounds read low;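 also: spheroids exposed to compounds for 7 days before readout; percent of vehicle DMSO control viability with 100% = untreated-like growth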
Please provide measured viability, T/C for the entries that follow.

Task: Lab note: need viability, T/C for C=CCn1c(=O)c2cnc(Nc3ccc(N4CCN(C)CC4)cc3)nc2n1-c1cccc(C(C)(C)O)n1 + Cc1cnc(CNC(=O)c2c(=O)c3ccc(N4CCCN(C)CC4)nc3n3c2sc2ccccc23)cn1 on 282377-053-R-J1-PDC complex spheroids, viability, anyone have it?
Result: 44.4%

Task: Lab note: need viability, T/C for COc1ccc([C@@H](O)c2cc(-c3ncnc4cc(N5CCOCC5)ccc34)c(F)cc2Cl)nn1 + Cc1cnc(CNC(=O)c2c(=O)c3ccc(N4CCCN(C)CC4)nc3n3c2sc2ccccc23)cn1 on 282377-053-R-J1-PDC complex spheroids, viability, anyone have it?
Result: 47%

Task: Lab note: need viability, T/C for COc1cc(C2c3cc4c(cc3C(OC3OC5COC(C)OC5C(O)C3O)C3COC(=O)C23)OCO4)cc(OC)c1O (stereo unspecified) + Cc1[nH]c2ccc(F)cc2c1-c1nc2c3cccnc3c3ncccc3c2[nH]1 on 282377-053-R-J1-PDC complex spheroids, viability, anyone have it?
Result: 52.7%

Task: Lab note: need viability, T/C for CC(=O)O[C@H]1C(=O)[C@@]2(C)[C@H]([C@H](OC(=O)c3ccccc3)[C@]3(O)C[C@H](OC(=O)[C@H](O)[C@@H](NC(=O)c4ccccc4)c4ccccc4)C(C)=C1C3(C)C)[C@]1(OC(C)=O)CO[C@@H]1C[C@@H]2O + Cc1[nH]c2ccc(F)cc2c1-c1nc2c3cccnc3c3ncccc3c2[nH]1 on 282377-053-R-J1-PDC complex spheroids, viability, anyone have it?
Result: 36.7%

Task: Lab note: need viability, T/C for CCCS(=O)(=O)Nc1ccc(F)c(C(=O)c2c[nH]c3ncc(-c4ccc(Cl)cc4)cc23)c1F + CN(C)c1ccc(Nc2c3ccc(NC(=O)CCN4CCCC4)cc3nc3cc(NC(=O)CCN4CCCC4)ccc23)cc1 on 282377-053-R-J1-PDC complex spheroids, viability, anyone have it?
Result: 82.1%

Task: Lab note: need viability, T/C for Cn1ncnc1[C@H]1c2n[nH]c(=O)c3cc(F)cc(c23)N[C@@H]1c1ccc(F)cc1 + Cc1[nH]c2ccc(F)cc2c1-c1nc2c3cccnc3c3ncccc3c2[nH]1 on 282377-053-R-J1-PDC complex spheroids, viability, anyone have it?
Result: 45%
